Items are presented alongside their recorded AsPC1 SI.
# Tested on: AsPC1 pancreatic cancer cells
# assayExplanation: MTT cytotoxicity assay, AsPC1 cells, 72 h
# Assay type: cell-based, human
# experimentalParameters: selectivity index = IC50 of NHDF/IC50 of AsPC1; free compound

Worked cases, AsPC1 SI given:
compound | AsPC1 SI
CC(=O)/C=C/c1ccccc1O [Compound (7)] | 3.27
CC(=O)/C=C/c1ccc(O)cc1O [(10)] | 1.54
CC(=O)/C=C/c1ccc(O)c(O)c1O [(11)] | 3.36
COc1cc(/C=C/C(C)=O)ccc1O [(12)] | 1.36
CC(=O)/C=C/c1ccc(O)cc1 [(9)] | 2.31

// next entry
Measured AsPC1 SI, CC(=O)/C=C/c1cccc(O)c1 [(8)] : 4.14

----------
# System: BxPC3 pancreatic cancer cells
# assayExplanation: MTT cytotoxicity assay, BxPC3 cells, 72 h
# Type: cell-based, human
# experimentalParameters: Homo sapiens, BXPC-3; free compound in DMSO, MTT, 72 h
assayEndpoint: IC50 (µM)
Entry rule: numbers only, all in µM.

molecule | IC50 / µM
CC(=O)/C=C/c1cccc(O)c1 [(8)] | 30.5
CC(=O)/C=C/c1ccc(O)cc1O [(10)] | 34.1
CC(=O)/C=C/c1ccccc1O [Compound (7)] | 22.4
CC(=O)/C=C/c1ccc(O)c(O)c1O [(11)] | 21.7
COc1cc(/C=C/C(C)=O)ccc1O [(12)] | 29.9

Measured IC50, CC(=O)/C=C/c1ccc(O)cc1 [(9)] : 28.1

Measured IC50, COC(=O)/C=C/c1ccc(O)c(O)c1O [(5)] : 46.6

----------
# Tested on: NHDF (normal human dermal fibroblasts)
# assayExplanation: MTT cytotoxicity assay, NHDF control cells, 72 h
# Format: cell-based
# experimentalParameters: free compound in DMSO
Sorting guide: entries reporting IC50 beneath 60 µM go in the 1.0 pile, the rest go in the 0.0 pile.

chemicalSmiles | targetEntity | group
CC(=O)/C=C/c1cccc(O)c1 | NHDF (normal human dermal fibroblasts) | 0.0
COC(=O)/C=C/c1ccc(O)c(O)c1O | NHDF (normal human dermal fibroblasts) | 0.0
COc1cc(/C=C/C(C)=O)ccc1O | NHDF (normal human dermal fibroblasts) | 1.0

Could you now consider this next compound?
Report whether reported IC50 is lower than 60 µM (strictly) for "CC(=O)/C=C/c1ccc(O)cc1O" 1.0

----------
# Test system: BxPC3 pancreatic cancer cells
# assayExplanation: MTT cytotoxicity assay, BxPC3 cells, 72 h
# Type: cell-based, human
# experimentalParameters: selectivity index = IC50 of NHDF/IC50 of BxPC3; free compound
Items are presented alongside their recorded BxPC3 SI.
Provide a numeric answer; units are not to be included.

Worked cases, BxPC3 SI given:
compound | BxPC3 SI
CC(=O)/C=C/c1ccccc1O [Compound (7)] | 2.73
COc1cc(/C=C/C(C)=O)ccc1O [(12)] | 1.72
CC(=O)/C=C/c1ccc(O)cc1O [(10)] | 1.60
CC(=O)/C=C/c1cccc(O)c1 [(8)] | 2.61
CC(=O)/C=C/c1ccc(O)cc1 [(9)] | 2.11

Measured BxPC3 SI, CC(=O)/C=C/c1ccc(O)c(O)c1O [(11)] : 2.84

Where do these numbers come from? They come from paper PMC7766656.
